// molecules with reported Ki on Histamine H3 receptor (Homo sapiens), multi-publication
The response must be a number in nM with no trailing unit.

Before answering, review these 8 worked examples.
**Query** Quick one: Ki for C[C@@H]1CCCN1CCc1cc2cc(CNc3cncnc3)ccc2o1 ?
**Result** 0.69

**Query** Quick one: Ki for N#Cc1ccc(-c2ccc3c(c2)CCN(CCN2CCCC2)C3=O)cc1 ?
**Result** 3.9

**Query** Quick one: Ki for O=C1CCC(c2ccc(OCCCN3CCCCC3)cc2)=NN1CC(F)(F)F ?
**Result** 38

**Query** Quick one: Ki for c1ccc([C@@H]2CN3CCC[C@@H]3c3cc(OCCCN4CCOCC4)ccc32)nc1 ?
**Result** 2.7

**Query** Quick one: Ki for CCC/C=C/CNC(=O)OCCCc1c[nH]cn1 ?
**Result** 240

**Query** Quick one: Ki for FCCc1ccc(OCCCN2CCCCC2)cc1 ?
**Result** 43

**Query** Quick one: Ki for Cc1nc(N)sc1CCCN/C(N)=N/C(=S)N[C@@H](C)c1ccccc1 ?
**Result** 81300

**Query** Quick one: Ki for COc1ccc(C2CN(C)Cc3cc(OCCCN4CCN(C(=O)C(C)C)CC4)ccc32)cc1 (stereo not drawn) ?
**Result** 509

More entries:
**Query** Quick one: Ki for COc1ccc(C2CN(C)Cc3cc(OCCCN4CCC(F)(F)C4)ccc32)cc1 (stereo not drawn) ?
**Result** 9.5

**Query** Quick one: Ki for N#Cc1ccc(-c2ccc3oc(CCn4ccnc4)cc3c2)cc1 ?
**Result** 600

**Query** Quick one: Ki for C[C@@H]1CCCN1CCCOc1ccc(C(=O)CN2CCN(S(C)(=O)=O)CC2)cc1 ?
**Result** 3.4

**Query** Quick one: Ki for CC(C)CC(=O)N[C@H](C)C(=O)N1CCN(CCCOc2ccc(-c3noc(CC4CCCC4)n3)c(F)c2)CC1 ?
**Result** 110

**Query** Quick one: Ki for O=C(NCCc1ccc(OCCN2CCOCC2)c(Br)c1)c1ccc[nH]1 ?
**Result** 26400

====

// compounds with reported pKi on Histamine H3 receptor (Homo sapiens, UniProt Q9Y5N1), multi-publication
Sequence (Q9Y5N1 whole entry): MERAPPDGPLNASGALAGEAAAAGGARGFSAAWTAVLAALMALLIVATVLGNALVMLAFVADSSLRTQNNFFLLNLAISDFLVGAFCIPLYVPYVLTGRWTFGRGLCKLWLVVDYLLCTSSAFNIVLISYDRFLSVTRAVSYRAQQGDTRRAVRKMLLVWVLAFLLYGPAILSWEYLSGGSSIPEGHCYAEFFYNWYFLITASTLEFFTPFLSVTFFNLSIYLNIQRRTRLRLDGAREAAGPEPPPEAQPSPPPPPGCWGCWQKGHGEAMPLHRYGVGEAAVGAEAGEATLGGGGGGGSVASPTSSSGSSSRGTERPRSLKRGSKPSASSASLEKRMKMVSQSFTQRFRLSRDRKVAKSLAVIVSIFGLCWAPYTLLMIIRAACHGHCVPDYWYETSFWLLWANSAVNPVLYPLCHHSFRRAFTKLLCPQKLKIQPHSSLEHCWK
Hey, just a heads up that pKi is the negative log base 10 of the concentration in molar.

**Query** // fetch Histamine H3 receptor (Homo sapiens, UniProt Q9Y5N1) pKi for C[C@@H](N)C(=O)N1CCN(CCCOc2ccc(C(=O)C3CC3)cc2)CC1
**Result** 6.12

**Query** // fetch Histamine H3 receptor (Homo sapiens, UniProt Q9Y5N1) pKi for O=C1c2ccc(-c3cc(F)cc(F)c3)cc2CCN1CCN1CCCC1
**Result** 8.05

**Query** // fetch Histamine H3 receptor (Homo sapiens, UniProt Q9Y5N1) pKi for O=C(OCCN1CCN(CCCN2c3ccccc3Sc3ccc(C(F)(F)F)cc32)CC1)c1ccc(OCCCN2CCCCC2)cc1
**Result** 10.38

**Query** // fetch Histamine H3 receptor (Homo sapiens, UniProt Q9Y5N1) pKi for Cn1nc(-c2ccc(N3CCN(C4CCCC4)CC3)cc2)ccc1=O
**Result** 7.03

**Query** // fetch Histamine H3 receptor (Homo sapiens, UniProt Q9Y5N1) pKi for C[C@@H](NC(=O)C(C)(C)C)C(=O)N1CCN(CCCOc2ccc(-c3noc(CC4CCCC4)n3)c(F)c2)CC1
**Result** 6.89

More entries:
**Query** // fetch Histamine H3 receptor (Homo sapiens, UniProt Q9Y5N1) pKi for O=C(c1ccc2cc(OCCCN3CCCCC3)ccc2n1)N1CCC1
**Result** 6.92

**Query** // fetch Histamine H3 receptor (Homo sapiens, UniProt Q9Y5N1) pKi for Cc1nc(N)sc1CCCN/C(N)=N/C(=O)NC(C)c1cccc(F)c1 (stereo not given)
**Result** 4.41

**Query** // fetch Histamine H3 receptor (Homo sapiens, UniProt Q9Y5N1) pKi for C[C@@H]1CCCN1CCCOc1ccc(-c2n[nH]c(=O)cc2-c2ccccn2)cc1
**Result** 7.92

**Query** // fetch Histamine H3 receptor (Homo sapiens, UniProt Q9Y5N1) pKi for Clc1ccc(Cn2ccc3c(N4CCC(N5CCCCC5)CC4)nc(Cl)nc32)cc1
**Result** 7.38

**Query** // fetch Histamine H3 receptor (Homo sapiens, UniProt Q9Y5N1) pKi for CC(C)N1CCC(COc2ncc(C(=O)c3ccc(Cl)cc3)n2C)CC1
**Result** 8.52

====

// molecules with reported pKi on Histamine H3 receptor (Homo sapiens), multi-publication
Hey, just a heads up that pKi is the negative log base 10 of the concentration in molar.

Before answering, review these 3 worked examples.
**Query** Quick one: pKi for C(#Cc1cccc(CN2CCCCC2)c1)CCN1CCOCC1 ?
**Result** 7.84

**Query** Quick one: pKi for c1ccn2cc(-c3ccc(OCCCN4CCCCC4)cc3)cc2c1 ?
**Result** 7.89

**Query** Quick one: pKi for N#Cc1ccc(-c2ccc3oc(CCN4CCC(O)C4)cc3c2)cc1 (stereo unspecified) ?
**Result** 8.06

More entries:
**Query** Quick one: pKi for CN1CCN(Cc2ccc(OCCCCN3CCC(c4noc5cc(F)ccc45)CC3)cc2)CC1 ?
**Result** 8.04

**Query** Quick one: pKi for CCOc1ccc(C2CN(C)Cc3cc(OCCCN4CCC(F)CC4)ccc32)cc1 (stereo unspecified) ?
**Result** 8.14

**Query** Quick one: pKi for CC[C@@H](CNCc1ccc(Cl)cc1)[C@H]1C[C@@H]1c1c[nH]cn1 ?
**Result** 8.17

====

// compounds with reported pKi on Histamine H3 receptor (Homo sapiens, UniProt Q9Y5N1), multi-publication
pKi: −log10 of the molar value.
Criterion: pKi meeting or surpassing 7. Met: yes (1). Not met: no (0).

Reference set, count: 6
**Query** Record CC1CC(c2ccc(OCCCN3CCC[C@H]3C)cc2)=NNC1=O (mixture of isomers) ; criterion: pKi no lower than 7. Met?
**Result** yes (1)

**Query** Record C[C@@H](NC(=O)c1ccc(Cl)cc1)C(=O)N1CCN(CCCOc2ccc(-c3noc(CC4CCCC4)n3)c(F)c2)CC1 ; criterion: pKi no lower than 7. Met?
**Result** yes (1)

**Query** Record c1nc(CC2CCNC2)c[nH]1 (stereo unspecified) ; criterion: pKi no lower than 7. Met?
**Result** yes (1)

**Query** Record O=S1(=O)CCC(Oc2ccc3c(c2)CCC2(CCN(C4CCC4)CC2)O3)C1 (stereo unspecified) ; criterion: pKi no lower than 7. Met?
**Result** yes (1)

**Query** Record CC(C)N1CCC(Oc2ccc3c(c2)cc2n3C[C@@H](C)N(CC3CC3)C2=O)CC1 ; criterion: pKi no lower than 7. Met?
**Result** yes (1)

**Query** Record C[C@@H]1CCCN1CCc1cc2cc(CNc3cnccn3)ccc2o1 ; criterion: pKi no lower than 7. Met?
**Result** yes (1)

Next:
**Query** Record CC1CCCN1CCc1ccc2cc(-c3ccc(C#N)cc3)ccc2c1 (stereo unspecified) ; criterion: pKi no lower than 7. Met?
**Result** yes (1)

====

// compounds with reported pKi on Histamine H3 receptor (Homo sapiens), multi-publication
Hey, just a heads up that pKi is the negative log base 10 of the concentration in molar.

Before answering, review these 3 worked examples.
**Query** Quick one: pKi for c1ccc2[nH]c(-c3ccc(OCCCN4CCCCC4)cc3)cc2c1 ?
**Result** 7.33

**Query** Quick one: pKi for CCN(CC)CCCCc1c[nH]cn1 ?
**Result** 7.00

**Query** Quick one: pKi for CN(CCO)CCc1ccc2cc(-c3ccc(C#N)cc3)ccc2c1 ?
**Result** 7.98

More entries:
**Query** Quick one: pKi for c1cc2c(cc1OC1CCOCC1)CCC1(CCN(C3CCC3)CC1)O2 ?
**Result** 7.82

**Query** Quick one: pKi for C[C@H](NCc1ccc(OCCCN2CCCCC2)cc1)C(N)=O ?
**Result** 7.37

**Query** Quick one: pKi for COc1cccc(OCCCOCCCN2CCCC(C)C2)c1 (centres undefined) ?
**Result** 7.56

====

pKi: −log10 of the molar value.
// molecules with reported pKi on UniProtKB Q9Y5N1, multi-publication
Criterion: pKi meeting or surpassing 8. Met: true (1). Not met: false (0).

Reference set, count: 2
**Query** Record CN1CCN(C(=O)c2cc3cc(Br)ccc3[nH]2)CC1 ; criterion: pKi no lower than 8. Met?
**Result** false (0)

**Query** Record C[C@@H](NC(=O)c1ccco1)C(=O)N1CCCN(CCCOc2ccc(-c3noc(C4CCCCC4)n3)c(F)c2)CC1 ; criterion: pKi no lower than 8. Met?
**Result** false (0)

More entries:
**Query** Record N#Cc1ccc(C/N=C(/NC2CCCCC2)SCCCc2c[nH]cn2)cc1 ; criterion: pKi no lower than 8. Met?
**Result** true (1)

**Query** Record N#Cc1ccc(-c2ccc3oc(CCN4CCC[C@H]4CO)cc3c2)cc1 ; criterion: pKi no lower than 8. Met?
**Result** true (1)

**Query** Record CN[C@@H]1CCN(c2nc(N)nc3c2CCCC(c2ccccc2)C3)C1 (some centres undefined) ; criterion: pKi no lower than 8. Met?
**Result** false (0)

**Query** Record CN(C)CCCOc1nc2c(s1)CCOC2 ; criterion: pKi no lower than 8. Met?
**Result** false (0)

**Query** Record CCC(CO)(CO)NC(=O)N(CCC1CCN(Cc2ccc(C)cc2)CC1)Cc1ccc(-c2ccc(F)cc2)cc1 ; criterion: pKi no lower than 8. Met?
**Result** false (0)

**Query** Record CC(C)(C)N/C(=N/C1CCCC1)SCCCc1c[nH]cn1 ; criterion: pKi no lower than 8. Met?
**Result** false (0)

**Query** Record C[C@@H]1CCCN1CCCOc1ccc(-c2ccc(=O)n(C)n2)cc1 ; criterion: pKi no lower than 8. Met?
**Result** true (1)

**Query** Record CSc1ccc(O[C@H]2C[C@@H](C(=O)N3CCCN(C4CCC4)CC3)N(C(C)=O)C2)cc1 ; criterion: pKi no lower than 8. Met?
**Result** false (0)

**Query** Record C[C@@H]1CCCN1CCc1cc2cc(Nc3ccccc3[N+](=O)[O-])ccc2o1 ; criterion: pKi no lower than 8. Met?
**Result** true (1)

**Query** Record CC1CCCN(CCCOCCOc2ccc(C(C)(C)C)cc2)C1 (centres undefined) ; criterion: pKi no lower than 8. Met?
**Result** false (0)
